Would you mind telling me the reported pIC50 of each entry?
test.system: PIK3CB (Human)
pIC50: −log10 of the molar value.

// known answers, use as guide
smiles.string	test.system	parameter.measured	measured.result
C[C@H](NC(=O)c1c(N)nn2cccnc12)c1cc2cccc(-c3ccc(=O)n(C)c3)c2c(=O)n1-c1ccccc1	PIK3CB (Human)	pIC50	≤ 5.00
C[C@H](NC(=O)c1c(N)nn2cccnc12)c1cc2cccc(Cl)c2c(=O)n1-c1ccc(F)cc1	PIK3CB (Human)	pIC50	6.00 to 7.00
C[C@H](NC(=O)c1c(N)nn2cccnc12)c1cc2cccc(N3CCOCC3)c2c(=O)n1-c1ccccc1	PIK3CB (Human)	pIC50	≤ 5.00

// for each molecule in input: emit pIC50
1. CC(C)Oc1ccc(-c2cnc(N)c(C(=O)N[C@@H](C)c3cc4cccc(Cl)c4c(=O)n3-c3ccccc3)n2)cc1
2. COc1cccc2c(C)c([C@H](C)NC(=O)c3c(N)nn4cccnc34)n(-c3ccccc3)c(=O)c12
3. C[C@H](NC(=O)c1nc(-c2cccc(NS(=O)(=O)C3CC3)c2)cnc1N)c1cc2cccc(Cl)c2c(=O)n1-c1ccccc1
4. CC(C)NS(=O)(=O)c1cccc(-c2cnc(N)c(C(=O)N[C@@H](C)c3cc4cccc(Cl)c4c(=O)n3-c3ccccc3)n2)c1
5. Nc1nccnc1C(=O)N1CCC[C@H]1c1cc2cccc(Cl)c2c(=O)n1-c1ccccc1

Return:
["≤ 5.00", "≤ 5.00", "6.00 to 7.00", "6.00 to 7.00", "≤ 5.00"]

From: the Kinase Knowledgebase extract (Sharma et al. 2016)
